Target: T1, cynoSIRPα (XP_015313155), Extracellular Domain + His-Tag (cynomolgus monkey)
T1 construct: also called CySIRPα XP_015313155; not shown: His-Tag
T1 chain: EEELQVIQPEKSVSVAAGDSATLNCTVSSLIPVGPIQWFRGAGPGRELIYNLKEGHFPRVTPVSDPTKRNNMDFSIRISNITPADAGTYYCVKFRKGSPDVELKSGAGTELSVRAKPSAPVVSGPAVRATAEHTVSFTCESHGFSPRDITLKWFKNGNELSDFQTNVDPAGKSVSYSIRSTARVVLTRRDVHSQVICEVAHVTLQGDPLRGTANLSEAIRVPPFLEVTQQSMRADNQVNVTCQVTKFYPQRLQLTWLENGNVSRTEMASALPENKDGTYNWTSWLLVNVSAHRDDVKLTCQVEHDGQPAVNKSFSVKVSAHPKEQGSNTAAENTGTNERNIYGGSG
Assay: SPR, antibody captured on Protein A/G, ECD-His analyte, steady-state fit
quantity_name: Kd (nM)
State just the number; it will be interpreted in nM.

Exercise: Fill in the blank: the reported Kd of Antibody A2 (antibody, human IgG1, kappa, L234A L235A, V domains shown) VH: EVQLVESGGGLVQPGGSLRLSCAASGFTLSSYDMHWVRQATGKGLEWVSAIGTAGDTYYTGSVKGRFTISRENAKNSLYLQMNSLRAADTAVYYCVRGGVWDDAFDIWGQGTMVTVSS VL: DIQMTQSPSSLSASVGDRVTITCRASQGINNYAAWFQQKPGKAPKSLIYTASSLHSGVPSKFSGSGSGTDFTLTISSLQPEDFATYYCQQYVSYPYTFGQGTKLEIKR is ____.
Key: 469

Exercise: Fill in the blank: the reported Kd of Antibody A12 (antibody, human IgG1, kappa, L234A L235A, V domains shown) VH: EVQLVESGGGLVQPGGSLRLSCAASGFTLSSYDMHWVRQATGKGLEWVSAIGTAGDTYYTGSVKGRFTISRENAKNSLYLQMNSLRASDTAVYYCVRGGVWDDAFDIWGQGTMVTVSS VL: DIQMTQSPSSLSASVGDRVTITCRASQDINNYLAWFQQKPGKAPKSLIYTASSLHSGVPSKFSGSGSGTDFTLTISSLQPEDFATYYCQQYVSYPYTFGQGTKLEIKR is ____.
Key: 195

Exercise: Fill in the blank: the reported Kd of Antibody A15 (antibody, human IgG1, kappa, L234A L235A, V domains shown) VH: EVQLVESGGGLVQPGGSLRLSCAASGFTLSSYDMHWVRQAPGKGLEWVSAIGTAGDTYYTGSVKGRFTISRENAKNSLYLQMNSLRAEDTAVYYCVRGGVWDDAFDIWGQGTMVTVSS VL: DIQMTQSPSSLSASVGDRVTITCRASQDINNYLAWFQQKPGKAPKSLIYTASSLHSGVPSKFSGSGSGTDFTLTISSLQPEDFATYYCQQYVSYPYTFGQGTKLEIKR is ____.
Key: 174
